Molecular target: T1, CytR DBD (Escherichia coli, UniProt P0ACN7 1-67)
T1 sequence: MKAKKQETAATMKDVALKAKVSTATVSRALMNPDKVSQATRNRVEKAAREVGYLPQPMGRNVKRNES
Experiment: fluorescence anisotropy
Quantity: pKd
Scale explanation: pKd corresponds to minus log10 of a concentration expressed in moles per litre.

In plain terms, nonspecific 30 bp (dsDNA) DNA 1: GTACAGAACATGTCTAAGCATGCTGGGGAC DNA 2: GTCCCCAGCATGCTTAGACATGTTCTGTAC has a documented pKd of 5.74

This collection of values is drawn from paper doi:10.1101/2021.02.28.433298.
